assay-target: F508delCFTR (Homo sapiens, UniProt P13569, DEL508-508)
Construct: expressed in transfected cells; host or cells: CFBE41o- human lung-derived epithelial cells (CFBE4lo-F508delCFTR-HRP), doxycycline-inducible
Sequence (P13569 with tags, fused parts or gaps DEL508-508): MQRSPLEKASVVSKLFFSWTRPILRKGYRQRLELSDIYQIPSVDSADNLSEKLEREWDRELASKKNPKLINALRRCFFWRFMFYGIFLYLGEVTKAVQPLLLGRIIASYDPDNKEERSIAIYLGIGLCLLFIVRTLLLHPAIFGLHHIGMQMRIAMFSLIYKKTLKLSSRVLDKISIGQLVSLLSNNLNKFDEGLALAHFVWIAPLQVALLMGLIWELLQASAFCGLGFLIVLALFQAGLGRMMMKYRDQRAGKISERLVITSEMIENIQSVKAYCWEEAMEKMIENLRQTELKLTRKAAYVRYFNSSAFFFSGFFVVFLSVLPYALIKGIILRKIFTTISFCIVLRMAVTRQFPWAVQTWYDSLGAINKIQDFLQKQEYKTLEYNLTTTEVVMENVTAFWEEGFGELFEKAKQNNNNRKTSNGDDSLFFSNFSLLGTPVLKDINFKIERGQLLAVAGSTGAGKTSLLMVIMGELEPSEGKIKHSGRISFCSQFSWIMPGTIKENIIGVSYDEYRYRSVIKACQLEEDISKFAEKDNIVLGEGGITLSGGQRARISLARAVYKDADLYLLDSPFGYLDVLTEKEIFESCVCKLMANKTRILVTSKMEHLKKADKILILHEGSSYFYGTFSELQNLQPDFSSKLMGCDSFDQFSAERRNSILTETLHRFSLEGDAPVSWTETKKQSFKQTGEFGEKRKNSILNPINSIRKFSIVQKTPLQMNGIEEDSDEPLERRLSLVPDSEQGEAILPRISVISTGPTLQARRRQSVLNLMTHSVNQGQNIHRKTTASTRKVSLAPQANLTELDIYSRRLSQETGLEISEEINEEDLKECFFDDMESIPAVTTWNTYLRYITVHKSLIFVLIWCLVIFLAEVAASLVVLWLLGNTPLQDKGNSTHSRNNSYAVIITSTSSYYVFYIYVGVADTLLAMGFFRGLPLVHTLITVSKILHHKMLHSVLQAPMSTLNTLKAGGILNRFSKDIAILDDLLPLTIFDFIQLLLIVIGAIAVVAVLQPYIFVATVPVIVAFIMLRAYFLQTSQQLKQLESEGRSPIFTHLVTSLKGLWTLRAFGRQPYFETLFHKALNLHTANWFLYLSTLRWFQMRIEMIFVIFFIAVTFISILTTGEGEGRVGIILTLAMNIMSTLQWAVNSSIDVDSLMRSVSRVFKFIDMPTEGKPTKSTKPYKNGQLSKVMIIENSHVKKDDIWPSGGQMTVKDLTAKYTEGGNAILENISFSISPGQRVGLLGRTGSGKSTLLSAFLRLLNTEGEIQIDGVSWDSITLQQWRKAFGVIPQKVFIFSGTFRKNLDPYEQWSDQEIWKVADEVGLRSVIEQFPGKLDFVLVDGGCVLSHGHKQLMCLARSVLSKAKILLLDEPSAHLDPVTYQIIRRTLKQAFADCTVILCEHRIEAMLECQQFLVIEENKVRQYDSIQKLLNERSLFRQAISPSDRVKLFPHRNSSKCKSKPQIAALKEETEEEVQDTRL
experiment: Cell Surface Expression-Horse Radish Peroxidase (CSE-HRP) Assay
Assay type: cell-based
protocol-conditions: CSE-HRP; with co-corrector (2 μM of 3-[(2R,4R)-4-({[1-(2,2-difluoro-1,3-benzodioxol-5-yl)cyclopropyl]carbonyl}amino)-7-methoxy-3,4-dihydro-2H-chromen-2-yl]benzoic acid); read-out: EC50 (with co-corrector)
pEC50: −log10 of the molar value.

{"columns": ["molecule", "pEC50"],
 "data": [
  ["Cc1ccc(C)c(CN[C@H]2[C@H](C(C)(C)C)[C@@H](C(=O)O)N(C(=O)C3CCCCC3)[C@H]2c2ccccc2)c1", "5.00 to 6.00"],
  ["COc1ccccc1[C@@H]1[C@H](NCc2cc(C(F)(F)F)cnc2Cl)[C@@H](C(C)(C)C)[C@H](C(=O)O)N1C(=O)C1CCCCC1 (racemic)", "5.00 to 6.00"],
  ["COc1cc(C(F)(F)F)ccc1CN[C@H]1[C@H](C2(C)CC2)[C@@H](C(=O)O)N(C(=O)C2CCCCC2)[C@H]1c1ccccc1", "5.00 to 6.00"],
  ["COc1ccc(C(C)(C)C)cc1CN[C@H]1[C@H](C(C)(C)C)[C@@H](C(=O)O)N(C(=O)C2CC(=O)N(C(C)C)C2)[C@H]1c1ccccc1 (stereo partly drawn)", "5.00 to 6.00"],
  ["CC(C)(C)[C@H]1[C@H](NCc2cc(Cl)ccc2Cl)[C@H](c2ccccc2)N(C(=O)C2CCCCC2)[C@@H]1C(=O)O", "5.00 to 6.00"],
  ["COc1ccc(C(C)(C)C)cc1CN[C@H]1[C@H](C(C)(C)C)[C@@H](C(=O)O)N(C(=O)c2onc3ccccc23)[C@H]1c1ccccc1", "> 6.00"],
  ["COc1ccc(C(C)(C)C)cc1CN[C@H]1[C@H](C(C)(C)C)[C@@H](C(=O)O)N(C(=O)C2CCCCC2)[C@H]1c1ccccc1OC", "> 6.00"],
  ["COc1ccc(C(C)(C)C)cc1CN[C@H]1[C@H](C(C)(C)C)[C@@H](C(=O)O)N(C(=O)C2CCCCC2)[C@H]1c1ccccc1O", "> 6.00"],
  ["COc1cc(C(F)(F)F)ccc1CN[C@H]1[C@H](C(C)(C)C)[C@@H](C(=O)O)N(C(=O)[C@H](OC)c2ccccc2)[C@H]1c1cccnc1OC", "5.00 to 6.00"],
  ["COc1ccc(C(C)(C)C)cc1CN[C@H]1[C@H](C(C)(C)C)[C@@H](C(=O)O)N(C(=O)CC2CC(=O)c3ccccc32)[C@H]1c1ccccc1 (stereo partly drawn)", "> 6.00"],
  ["COc1ccc(C(C)(C)C)cc1CN[C@H]1[C@H](C(C)(C)C)[C@@H](C(=O)O)N(C(=O)C(OC)C(C)C)[C@H]1c1ccccc1 (stereo partly drawn)", "5.00 to 6.00"],
  ["CC(C)(C)[C@H]1[C@H](NCc2cc(Cl)cc(Cl)c2)[C@H](c2ccccc2)N(C(=O)C2CCCCC2)[C@@H]1C(=O)O", "5.00 to 6.00"],
  ["COc1ccc(-c2ccc(C)cc2)cc1CN[C@H]1[C@H](C(C)(C)C)[C@@H](C(=O)O)N(C(=O)C2CCCCC2)[C@H]1c1ccccc1", "> 6.00"],
  ["COc1ccc(C(C)(C)C)cc1CN[C@H]1[C@H](C2(C)CC2)[C@@H](C(=O)O)N(C(=O)C2CCCCC2)[C@H]1c1ccccc1", "> 6.00"],
  ["COc1ccc(C(F)(F)F)cc1CN[C@H]1[C@H](C(C)(C)C)[C@@H](C(=O)O)N(C(=O)C2Cc3ccccc3O2)[C@H]1c1ccccc1 (single isomer, unassigned) [II-265]", "5.00 to 6.00"],
  ["COc1ccc(C(C)(C)C)cc1CN[C@H]1[C@H](C(C)(C)C)[C@@H](C(=O)O)N(C(=O)[C@@H]2CCCO2)[C@H]1c1ccccc1Br", "> 6.00"],
  ["COc1nc(C(F)(F)F)ccc1CN[C@@H]1[C@@H](C(C)(C)C)[C@H](C(=O)O)N(C(=O)C2CCCCC2)[C@@H]1c1ccccc1 (racemic)", "5.00 to 6.00"],
  ["COc1ccc(C(C)(C)C)cc1CN[C@H]1[C@H](C(C)(C)C)[C@@H](C(=O)O)N(C(=O)c2cc(C)nc(C)c2)[C@H]1c1ccccc1", "5.00 to 6.00"],
  ["COc1ccc(-c2cccnc2)cc1CN[C@H]1[C@H](C(C)(C)C)[C@@H](C(=O)O)N(C(=O)C2CCCCC2)[C@H]1c1ccccc1", "5.00 to 6.00"],
  ["COc1ccc(C(C)(C)C)cc1CN[C@H]1[C@H](C(C)(C)C)[C@@H](C(=O)O)N(C(=O)C2Cc3ccccc3O2)[C@H]1c1ccccc1 (single isomer, unassigned)", "5.00 to 6.00"],
  ["COc1ccc(C(C)(C)C)cc1CN[C@H]1[C@H](C(C)(C)C)[C@@H](C(=O)O)N(C(=O)C2CCC(OC)CC2)[C@H]1c1ccccc1 (stereo partly drawn)", "5.00 to 6.00"],
  ["COc1cc(OC(F)(F)F)ccc1CN[C@@H]1[C@@H](C(C)(C)C)[C@H](C(=O)O)N(C(=O)OC(C)C)[C@@H]1c1ccccc1 (racemic)", "5.00 to 6.00"],
  ["COc1ccc(C(C)(C)C)cc1CN[C@H]1[C@H](C(C)(C)OC)[C@@H](C(=O)O)N(C(=O)C2CCCCC2)[C@H]1c1ccccc1OC", "5.00 to 6.00"],
  ["COc1ccc(C(F)(F)F)cc1CN[C@H]1[C@H](C(C)(C)C)[C@@H](C(=O)O)N(C(=O)C2CCCCC2)[C@H]1c1cccnc1C", "5.00 to 6.00"]
]}

These entries and their values trace back to patent US20180099931A1.
